Each recorded value in this set is attributed to IntAct's records for PubMed 20558380.

B1: Vang-like protein 2 (Homo sapiens), Q9ULK5 (parent)
chain: MDTESQYSGYSYKSGHSRSSRKHRDRRDRHRSKSRDGGRGDKSVTIQAPGEPLLDNESTRGDERDDNWGETTTVVTGTSEHSISHDDLTRIAKDMEDSVPLDCSRHLGVAAGATLALLSFLTPLAFLLLPPLLWREELEPCGTACEGLFISVAFKLLILLLGSWALFFRRPKASLPRVFVLRALLMVLVFLLVVSYWLFYGVRILDARERSYQGVVQFAVSLVDALLFVHYLAVVLLELRQLQPQFTLKVVRSTDGASRFYNVGHLSIQRVAVWILEKYYHDFPVYNPALLNLPKSVLAKKVSGFKVYSLGEENSTNNSTGQSRAVIAAAARRRDNSHNEYYYEEAEHERRVRKRRARLVVAVEEAFTHIKRLQEEEQKNPREVMDPREAAQAIFASMARAMQKYLRTTKQQPYHTMESILQHLEFCITHDMTPKAFLERYLAAGPTIQYHKERWLAKQWTLVSEEPVTNGLKDGIVFLLKRQDFSLVVSTKKVPFFKLSEEFVDPKSHKFVMRLQSETSV
partner: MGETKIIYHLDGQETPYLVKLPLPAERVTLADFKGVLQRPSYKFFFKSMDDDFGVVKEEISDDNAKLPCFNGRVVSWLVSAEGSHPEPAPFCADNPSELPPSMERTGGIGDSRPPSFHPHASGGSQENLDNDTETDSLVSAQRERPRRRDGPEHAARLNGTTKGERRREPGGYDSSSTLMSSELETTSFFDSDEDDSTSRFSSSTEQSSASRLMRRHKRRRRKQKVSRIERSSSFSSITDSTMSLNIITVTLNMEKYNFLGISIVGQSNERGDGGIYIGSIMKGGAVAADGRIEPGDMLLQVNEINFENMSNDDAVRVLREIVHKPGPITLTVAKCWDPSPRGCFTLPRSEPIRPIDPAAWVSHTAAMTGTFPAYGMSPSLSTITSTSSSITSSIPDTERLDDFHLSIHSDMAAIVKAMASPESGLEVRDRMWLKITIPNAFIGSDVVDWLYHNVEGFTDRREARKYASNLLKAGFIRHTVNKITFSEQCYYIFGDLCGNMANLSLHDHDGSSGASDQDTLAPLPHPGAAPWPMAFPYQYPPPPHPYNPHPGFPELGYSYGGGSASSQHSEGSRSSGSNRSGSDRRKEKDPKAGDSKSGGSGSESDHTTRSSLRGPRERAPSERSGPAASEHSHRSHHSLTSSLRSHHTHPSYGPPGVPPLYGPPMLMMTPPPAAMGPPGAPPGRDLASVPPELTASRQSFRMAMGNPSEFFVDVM

Variants of: B1
Settings: with dvl3_mouse Dvl3, Q61062
MEASURED ENDPOINT: effect of a mutation on the interaction

[[record]]
mutant_id = "S464N"
test_result = "disrupting interaction"

[[record]]
mutant_id = "F437S"
test_result = "disrupting interaction"

[[record]]
mutant_id = "D255E"
test_result = "disrupting interaction"

